Target chain: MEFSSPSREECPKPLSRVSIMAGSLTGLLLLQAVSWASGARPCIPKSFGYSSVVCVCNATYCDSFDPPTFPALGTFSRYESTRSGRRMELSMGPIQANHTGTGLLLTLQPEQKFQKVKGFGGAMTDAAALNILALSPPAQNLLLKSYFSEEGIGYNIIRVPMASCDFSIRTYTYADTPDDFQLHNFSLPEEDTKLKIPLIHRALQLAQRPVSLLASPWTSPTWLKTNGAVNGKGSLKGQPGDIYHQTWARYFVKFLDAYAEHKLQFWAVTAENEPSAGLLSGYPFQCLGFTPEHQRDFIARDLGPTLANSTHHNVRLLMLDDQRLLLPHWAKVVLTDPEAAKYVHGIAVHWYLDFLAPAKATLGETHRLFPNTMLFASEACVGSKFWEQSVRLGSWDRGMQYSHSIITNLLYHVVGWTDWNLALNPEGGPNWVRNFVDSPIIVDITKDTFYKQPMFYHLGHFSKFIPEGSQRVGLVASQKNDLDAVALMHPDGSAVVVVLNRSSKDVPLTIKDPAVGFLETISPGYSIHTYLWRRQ
pIC50: −log10 of the molar value.
Reported pIC50 values for a set of molecules
measured attribute: pIC50

- chemical string: "O=C(Nc1ccncc1)c1ccc(Oc2cc(Cl)cc(Cl)c2)o1"
  value modifier: "="
  endpoint value: 5.33
- chemical string: "CC(C)(C)C(=O)Nc1ccncc1"
  value modifier: "<"
  endpoint value: 3.40
- chemical string: "CCOc1ccc2c(N)nc(N)nc2c1OCC"
  value modifier: "="
  endpoint value: 4.66
- chemical string: "Nc1nc(N)c2cc([N+](=O)[O-])ccc2n1"
  value modifier: "="
  endpoint value: 4.21
